# target desc: human Nav1.1 (Homo sapiens, UniProt P35498)
# Construct: host or cells: HEK293
# test details: Amplification of Nav1.1-derived voltage-gated sodium current (Nav1.1 current), automated patch clamp (Test 1)
# Type: cell-based
# condition summary: Concentration for evaluation 10 μM; HEK293 cell line stably expressing human Nav1.1
measured metric: Nav1.1 current amplification rate (%)

P: CC1(C)CC=C(c2ccc(=O)n(CC(=O)Nc3ccn4nccc4c3)n2)CC1 [Example 427]
Q: COc1ccc(NC(=O)Cn2nc(N3CCC(C)CC3)ccc2=O)cn1 [Example 62]
R: Cc1ccc(-c2nn(CC(=O)Nc3ccn4ccnc4c3)c(=O)c(C)c2C)cc1 [Example 156]
Sort these molecules on Nav1.1 current amplification rate (%) so the largest reading comes first. Answer by naming the labels in the order asked. P, R, Q

a: N#Cc1ccc(NC(=O)Cn2nc(N3CCCC(C(N)=O)C3)ccc2=O)cc1 (stereo not shown) [Example 8]
b: CC1CCN(c2ccc(=O)n(CC(=O)Nc3cccc(-n4ccnc4)c3)n2)CC1 [Example 67]
Between a and b , which one shows the larger Nav1.1 current amplification rate (%) value? To answer, give the label that identifies your chosen option. b
(b: 177%, a: 4%)

a: COc1cc(C2=CCC(C)(C)CC2)nn(CC(=O)Nc2ccn3ccnc3c2)c1=O [Example 456]
b: O=C(Cn1nc(-c2ccc(C(F)(F)F)nc2)ccc1=O)Nc1ccc2ocnc2c1 [Example 453]
Record comparison, field Nav1.1 current amplification rate (%): mark the lower of a and b . Could you answer with the label of the item you picked? b
(b: 15%, a: 224%)

* * *

# target desc: human Nav1.1 (Homo sapiens)
# Construct: host or cells: HEK293
# test details: Amplification of Nav1.1-derived voltage-gated sodium current (Nav1.1 current), automated patch clamp (Test 1)
# Type: cell-based
# condition summary: Concentration for evaluation 10 μM; HEK293 cell line stably expressing human Nav1.1
measured metric: Nav1.1 current amplification rate (%)

Worked cases, Nav1.1 current amplification rate (%) given:
• CC1CC=C(c2ccc(=O)n(CC(=O)Nc3ccnc(-c4cnn(C)c4)c3)n2)CC1 (centres unmarked) = 147
• CC1CCN(c2ccc(=O)n(CC(=O)Nc3ccc(F)nc3)n2)CC1 = 26
• CC1CCN(c2ccc(=O)n(CC(=O)Nc3ccc4c(c3)CCNC4=O)n2)CC1 = 65

1: CC1CCN(c2ccc(=O)n(CC(=O)Nc3ccc4ncn(C)c4c3)n2)CC1
2: CC1(C)CCC=C(c2ccc(=O)n(CC(=O)Nc3ccc(C#N)cc3)n2)C1
3: N#Cc1ccc(NC(=O)Cn2nc(N3CCC(F)(F)CC3)ccc2=O)cc1
Reorder: Nav1.1 current amplification rate (%), max to min. // list labels; follow requested order 2, 1, 3

A: Cc1noc2ccc(NC(=O)Cn3nc(C4=CCC(C)CC4)ccc3=O)cc12 (racemic)
B: CC1CC=C(c2ccc(=O)n(CC(=O)N3CCC(c4cccnc4)CC3)n2)CC1 (centres unmarked)
For the two items A and B , which reports the higher Nav1.1 current amplification rate (%) value? Give the label of your selection. B

* * *

# target desc: human Nav1.1 (Homo sapiens, UniProt P35498)
# Construct: host or cells: HEK293
# test details: Amplification of Nav1.1-derived voltage-gated sodium current (Nav1.1 current), automated patch clamp (Test 1)
# Assay type: cell-based
# condition summary: Concentration for evaluation 1 μM; HEK293 cell line stably expressing human Nav1.1
measured metric: Nav1.1 current amplification rate (%)

Worked examples follow.
- CC1CC=C(c2cnc3cnn(CC(=O)Nc4ccc5ncnn5c4)c3n2)CC1 (stereo not shown): 173
- CC1CC=C(c2ccc(=O)n(CC(=O)Nc3cncc(C4=CCOC4)c3)n2)CC1 (stereo not shown): 153
- Cc1cn(Cc2cccc3c2CCN3C(=O)Cn2nc(C3=CCC(C)CC3)ccc2=O)cn1 (stereo not shown): 115
- CN(c1cnc2cnn(CC(=O)Nc3ccc4cccnc4c3)c2n1)C1CC1: 100
- Cc1ncc(-c2cncc(NC(=O)Cn3nc(C4=CCC(C)CC4)ccc3=O)c2)o1 (stereo not shown): 82

1: CC1CC=C(c2ccc(=O)n(CC(=O)Nc3ccc4cncn4c3)n2)CC1 (stereo not shown)
2: CN(CCC1CC1)c1cnc2cnn(CC(=O)Nc3ccc4cncnc4c3)c2n1
3: Cc1nccn1-c1ccc(NC(=O)Cn2nc(C3=CCC(C)CC3)ccc2=O)cc1 (stereo not shown)
4: CN(CC1CC1)c1cnc2cnn(CC(=O)Nc3ccc4ncnn4c3)c2n1
5: CN(CCC1CC1)c1ncc2cnn(CC(=O)Nc3ccn4ncnc4c3)c2n1
Write the entries in order, lowest recorded Nav1.1 current amplification rate (%) first. Answer format: list of labels, ordered as asked. 4, 5, 1, 3, 2
